These entries and their values trace back to the supplement of paper PMC10567573.

Below: a set of entries, each annotated with reported protein stability index.
B1: ESR2 (parent)
chain: KSCQACRLRKCYEVGMVKCGSRRE

Variants of: B1
Experiment: protein stability index of a GFP-peptide fusion (GPS, HEK-293T) (PSI 1-6); higher = more stable;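 also: lentivirally expressed fusions sorted by FACS into six bins by GFP to DsRed ratio, PSI derived from sequencing read proportions per bin multiplied by bin number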
Conditions: c terminus: a fixed tail appended
Just the number, please, no unit attached.

Example cases with answers are listed next.
sequence_content=KSCQACELRKCYEVGMVKCGSRRE experimental_result=2.69
sequence_content=KSCQAMRLRKCYEVGMVKCGSRRE experimental_result=2.44
sequence_content=KSCQACRLTKCYEVGMVKCGSRRE experimental_result=2.66
sequence_content=KSCQACRLRKCYHVGMVKCGSRRE experimental_result=2.89
sequence_content=KSCQACRLRKCYEVGMVKCTSRRE experimental_result=2.19

Exercise: Which value of protein stability index has been reported for "ASCQACRLRKCYEVGMVKCGSRRE" in the records?
Solution: 2.89

Exercise: Param item: "KSCQACRLRKCYEVGMVKCGSGRE"
Solution: 1.99

Exercise: Input "KSCQACRLRKCYSVGMVKCGSRRE"
Solution: 2.42

Exercise: Continue with "KSCQACRLRKSYEVGMVKCGSRRE"
Solution: 1.68

Exercise: Next up: "KSKQACRLRKCYEVGMVKCGSRRE"
Solution: 2.59

Exercise: Entry to check: "KSCQACRLRKCYEVGKVKCGSRRE"
Solution: 2.67

Exercise: Also "KSCQACRLRACYEVGMVKCGSRRE" , if possible.
Solution: 1.81

Exercise: Consider next the variant "KSCQACRLRKFYEVGMVKCGSRRE" in the same way.
Solution: 2.52

Exercise: Another variant to look at: "KSCQACRLRKCYEVGMVKCDSRRE"
Solution: 1.87

Exercise: Follow-up item: "MSCQACRLRKCYEVGMVKCGSRRE"
Solution: 1.87

Exercise: Now try "KSCQADRLRKCYEVGMVKCGSRRE" .
Solution: 2.73

Exercise: Moving on to "PSCQACRLRKCYEVGMVKCGSRRE"
Solution: 2.35

Exercise: Also check "KSCQACRLRKCYEVGMVKCGSSRE"
Solution: 1.91

Exercise: Field entry: "KSCQACRLRKCYEVGMVKCGARRE"
Solution: 2.24

Exercise: Same question for "KSCQACRLRKCYEVGMVKCGSRRR" please.
Solution: 2.24

Exercise: // same read-out, input: "KSCQACRLRKCYEVGMVMCGSRRE"
Solution: 1.67

Exercise: Again, but for "KSCQACRLRKCYEVGQVKCGSRRE"
Solution: 1.95

Exercise: Next: "KFCQACRLRKCYEVGMVKCGSRRE"
Solution: 1.45

Exercise: One more variant: "KSCQACPLRKCYEVGMVKCGSRRE"
Solution: 2.17

Exercise: Also check "KSCQACRLRKCYEVGMVWCGSRRE"
Solution: 1.35
